Listing: IC50 of selected compounds
- TESTED TARGET: LinfGSK-3 short (Leishmania infantum)
- TEST DETAILS: biochemical
- Format: biochemical, L. infantum
Field format: number, assumed µM, no unit text.

NC1=NC(=O)/C(=C2\CCNC(=O)c3[nH]c(Br)cc32)N1 [Hymeni-aldisine, Stylissa dami-cornis, Hymenialdisine] = 18.2

Now look at this entry.
q: Write down IC50 measured for item COc1ccc2c(c1)/C(=C/c1cnc[nH]1)C(=O)N2 [SU9516]
a: 1.87

###

HsGSK-3β (Homo sapiens): reported IC50 for various molecules.
Sequence (P49841 whole entry): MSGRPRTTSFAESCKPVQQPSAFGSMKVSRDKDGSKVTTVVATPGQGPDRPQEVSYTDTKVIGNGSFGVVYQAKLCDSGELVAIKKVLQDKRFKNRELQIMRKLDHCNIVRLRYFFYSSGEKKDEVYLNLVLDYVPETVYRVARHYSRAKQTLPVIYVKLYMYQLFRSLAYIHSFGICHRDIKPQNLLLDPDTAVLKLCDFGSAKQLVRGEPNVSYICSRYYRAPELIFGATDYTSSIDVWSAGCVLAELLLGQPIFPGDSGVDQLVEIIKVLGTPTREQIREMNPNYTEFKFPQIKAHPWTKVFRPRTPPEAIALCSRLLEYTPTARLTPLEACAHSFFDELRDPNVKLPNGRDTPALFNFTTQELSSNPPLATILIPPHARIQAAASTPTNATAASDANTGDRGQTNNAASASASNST
Express it in nM; write the number only.

Solved entries (count: 3):
O=C1Nc2ccccc2/C1=C/c1cnc[nH]1 [Angio-genesis inhibitor] = 1620
Cn1cc(C2=C(c3cn(CCCN)c4ccccc34)C(=O)NC2=O)c2ccccc21 [Ro-31-7549] = 4
O=C1Nc2ccc(S(=O)(=O)O)cc2C1=C1Nc2ccccc2C1=NO [Indirubin-3'-monoxime-5-sulphonic Acid] = 60

q: Note down IC50 recorded for O=C1Nc2ccc3ncsc3c2/C1=C/Nc1ccc(S(=O)(=O)Nc2ccccn2)cc1 [GW8510]
a: 20

q: Output IC50 of N#CCCc1ccc2c(c1)-c1[nH]c3ccc([N+](=O)[O-])cc3c1CC(=O)N2 [Alster-paullone, 2-cyanoethyl]
a: 20
